targetEntity: SNX27PDZ (aa 40–135) (human, UniProt Q96L92 40-135)
methodNotes: ITC; 25 °C, 20 mM HEPES pH 7.4, 200 mM NaCl, 2 mM TCEP; 20–30 µM OTULINcat variant in the cell, 150–450 µM PDZ variant in the syringe; single-site model
testContext: both partners purified
readoutType: pKd
Numbers only, as −log10 of the molar value.

Can you look up the measured pKd of VRVCEETSL (peptide, UniProt Q96BN8 344-352, looked up, OTULIN, human, aa 344–352; also called OTULIN PDZbm peptide) [OTULIN C-terminal PDZbm peptide (aa 344–352)] for me?
5.96
